- Subject Of Test: hSGLT3 (Homo sapiens, UniProt Q9NY91)
- Construct: The complete hSGLT3 clone was created by ligation of this PCR product to the 3′-end of hSGLT3 at the HindIII site; expressed in transfected cells; host or cells: Xenopus laevis oocytes injected with hSGLT3 cRNA
- Sequence (Q9NY91 1-659): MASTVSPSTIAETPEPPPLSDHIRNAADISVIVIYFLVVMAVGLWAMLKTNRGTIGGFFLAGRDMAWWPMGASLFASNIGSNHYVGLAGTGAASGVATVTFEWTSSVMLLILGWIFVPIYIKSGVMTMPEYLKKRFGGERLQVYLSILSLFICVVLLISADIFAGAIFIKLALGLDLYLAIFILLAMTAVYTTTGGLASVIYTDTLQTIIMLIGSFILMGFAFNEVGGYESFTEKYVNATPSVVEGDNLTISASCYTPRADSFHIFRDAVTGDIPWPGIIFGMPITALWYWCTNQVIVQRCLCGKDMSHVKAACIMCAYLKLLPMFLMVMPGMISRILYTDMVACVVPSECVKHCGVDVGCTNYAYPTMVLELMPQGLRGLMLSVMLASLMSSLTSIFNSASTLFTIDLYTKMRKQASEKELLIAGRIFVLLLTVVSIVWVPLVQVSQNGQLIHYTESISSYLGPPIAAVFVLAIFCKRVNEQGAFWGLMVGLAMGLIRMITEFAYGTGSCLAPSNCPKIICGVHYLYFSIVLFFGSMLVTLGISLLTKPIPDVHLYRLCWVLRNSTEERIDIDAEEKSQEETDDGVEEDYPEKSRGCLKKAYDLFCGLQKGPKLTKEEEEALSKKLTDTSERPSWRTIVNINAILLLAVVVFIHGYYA
- Test Name: sugar-induced currents in hSGLT3-expressing oocytes under voltage clamp
- Format: cell-based
- Test Parameters: -150 mV, Na+ buffer, n=5; read-out: apparent sugar affinity (K0.5) of current
- Description: Expression of hSGLT3 in oocytes. […] Two electrode-voltage clamp. […] Membrane potential changes and ionic currents were measured when adding different sugar concentrations. Sugar-specific changes in current were the difference between the values measured with sugar and the preceding value in buffer alone. […] In some experiments at low pH we simultaneously recorded the intracellular pH of the oocyte using the fluorescent dye BCECF-AM (15, 16). […]
Endpoint: EC50 (mM)
Numbers only, in mM.

Query: Tell me the measured EC50 of CO[C@H]1O[C@H](CO)[C@@H](O)[C@H](O)[C@H]1O [αMDG, α-methyl-D-glucopyranoside] , please.
Result: 36

---

- Subject Of Test: hSGLT3 (Homo sapiens, UniProt Q9NY91)
- Construct: The complete hSGLT3 clone was created by ligation of this PCR product to the 3′-end of hSGLT3 at the HindIII site; expressed in transfected cells; host or cells: Xenopus laevis oocytes injected with hSGLT3 cRNA
- Test Name: two-electrode voltage-clamp, membrane potential of hSGLT3-expressing Xenopus oocytes
- Type: cell-based
- Test Parameters: concentrations as high as 100 mM
Endpoint: effect on the membrane potential

OC[C@@H](O)[C@@H](O)[C@H](O)[C@H](O)CO [mannitol] ... no effect
O=C[C@H](O)[C@@H](O)[C@@H](O)[C@H](O)CO [D-galactose] ... no effect
O=C(CO)[C@@H](O)[C@H](O)[C@H](O)CO [D-fructose] ... no effect

Values were extracted from patent US7238708B2.
